Test: Tmax in Sprague-Dawley rat at 10 mg/kg, po administered as single dose by LC-MS analysis
Assay type: ADME, organism-based
Conditions: in vivo
Endpoint Label: Tmax
Output should be the measured figure followed by the unit it is expressed in.

Query CC(O)(C#Cc1ccc2nccc(-c3cn[nH]c3)c2c1)c1nccs1 (stereo unspecified) yields Tmax of 54 min

----------
Assay: Intrinsic hepatic clearance in monkey
Assay type: ADME, Macaca mulatta
Conditions: rhesus monkey, in vivo; read-out: CLH
Endpoint Label: CLint scaled (mL/min/kg)
Could you give me the number in mL/min/kg? Just the number is fine.

The recorded CLint scaled for entry CC(O)(C#Cc1ccc2nccc(-c3cn[nH]c3)c2c1)c1nccs1 (stereo unspecified) equals 60.2
